Recorded values, source ChEMBL document CHEMBL5042554.

Target: Adenosine receptor A2a (Homo sapiens)
Sequence (P29274 whole entry): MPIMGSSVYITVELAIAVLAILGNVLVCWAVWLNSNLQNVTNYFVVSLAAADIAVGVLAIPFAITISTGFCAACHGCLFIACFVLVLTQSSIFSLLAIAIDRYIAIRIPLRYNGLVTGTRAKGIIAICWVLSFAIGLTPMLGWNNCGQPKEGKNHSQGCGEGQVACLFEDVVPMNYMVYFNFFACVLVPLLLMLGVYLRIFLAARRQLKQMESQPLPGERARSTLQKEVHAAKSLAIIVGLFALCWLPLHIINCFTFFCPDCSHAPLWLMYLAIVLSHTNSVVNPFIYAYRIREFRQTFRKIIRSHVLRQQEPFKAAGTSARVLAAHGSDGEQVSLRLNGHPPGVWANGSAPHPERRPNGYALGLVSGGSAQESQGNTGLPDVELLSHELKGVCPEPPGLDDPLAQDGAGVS
Test: Antagonist activity at human recombinant adenosine A2A receptor transfected in HEK293 cells co-transfected with Galpha15/16 assessed as intracellular calcium change incubated for 10 mins by microplate reader method
Assay type: functional, cell-based
assay.endpoint: IC50 (nM)

> print(dat)
                                        mol  assay.endpoint  unit.symbol  reported.measurement
1  Cn1cc(-c2cnc(N)n3nc(-c4ccco4)nc23)ccc1=O            IC50           nM                  5.72

---

Molecular target: UniProt P30542
Sequence (P30542 whole entry): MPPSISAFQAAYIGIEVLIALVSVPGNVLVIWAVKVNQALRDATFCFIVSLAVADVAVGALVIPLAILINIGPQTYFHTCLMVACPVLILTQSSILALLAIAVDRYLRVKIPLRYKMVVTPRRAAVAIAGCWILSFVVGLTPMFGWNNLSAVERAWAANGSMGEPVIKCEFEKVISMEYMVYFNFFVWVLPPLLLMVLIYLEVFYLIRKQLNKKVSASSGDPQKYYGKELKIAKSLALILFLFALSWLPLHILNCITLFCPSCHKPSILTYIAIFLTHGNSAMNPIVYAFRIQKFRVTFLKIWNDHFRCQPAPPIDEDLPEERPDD
Experiment: Antagonist activity at human recombinant adenosine A1 receptor transfected in HEK293 cells co-transfected with Galpha15/16 assessed as intracellular calcium change incubated for 10 mins by microplate reader method
pIC50: −log10 of the molar value.
assay.endpoint: pIC50

> print(dat)
                                        mol  measurement.target  reported.measurement
1  Cn1cc(-c2cnc(N)n3nc(-c4ccco4)nc23)ccc1=O      UniProt P30542                  7.59

---

Target: Adenosine receptor A2b (Homo sapiens, UniProt P29275)
Sequence (P29275 whole entry): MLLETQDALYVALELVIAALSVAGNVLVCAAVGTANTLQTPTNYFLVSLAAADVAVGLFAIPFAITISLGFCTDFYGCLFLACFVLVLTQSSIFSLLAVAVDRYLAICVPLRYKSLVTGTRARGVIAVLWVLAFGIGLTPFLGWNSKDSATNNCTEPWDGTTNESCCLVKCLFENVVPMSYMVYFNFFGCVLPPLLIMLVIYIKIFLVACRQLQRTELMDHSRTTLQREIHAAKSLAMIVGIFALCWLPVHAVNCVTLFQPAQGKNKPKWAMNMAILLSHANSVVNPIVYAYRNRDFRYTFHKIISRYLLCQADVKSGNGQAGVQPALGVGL
Experiment: Displacement of [3H] DPCPX from human recombinant A2B adenosine receptor expressed in HEK293 cells incubated for 30 mins by radioligand binding competition assay
# Ki listing for each entry below
assay.endpoint: Ki

> print(dat)
                                         mol  assay.endpoint  reported.measurement
 1  Cn1cc(-c2cnc(N)n3nc(-c4nccs4)nc23)ccc1=O              Ki               1.59 µM
 2  Cc1cccc(-c2nc3c(-c4ccc(=O)n(C)c4)cnc(N)n3n2)n1              Ki               > 10 µM
 3  Cc1csc(-c2nc3c(-c4ccc(=O)n(C)c4)cnc(N)n3n2)n1              Ki               > 10 µM
 4  Cn1cc(-c2cnc(N)n3nc(-c4ccccn4)nc23)ccc1=O              Ki               > 10 µM
 5  Cn1ccc(-c2nc3c(-c4ccc(=O)n(C)c4)cnc(N)n3n2)n1              Ki               > 10 µM
 6  Cn1cc(-c2cnc(N)n3nc(-c4ccco4)nc23)ccc1=O              Ki              0.491 µM
 7  Cn1nccc1-c1nc2c(-c3ccc(=O)n(C)c3)cnc(N)n2n1              Ki               > 10 µM
 8         Cn1cc(-c2cnc(N)nc2-c2ccco2)ccc1=O              Ki             0.0589 µM
 9  Cc1ccc(-c2nc3c(-c4ccc(=O)n(C)c4)cnc(N)n3n2)o1              Ki               > 10 µM
10  Cc1cnc(-c2nc3c(-c4ccc(=O)n(C)c4)cnc(N)n3n2)s1              Ki               9.92 µM
